Target: Phosphodiesterase 4 (Homo sapiens, UniProt P27815+Q08499+Q07343+Q08493)
Experiment: Inhibition in vitro of Phosphodiesterase 4 activity isolated from guinea pig lung
Format: protein assay, Cavia porcellus
Conditions: target entry is the homologue from another species
Measurement Kind: IC50 (nM)

Please review the following examples before continuing.
Record Smiles	IC50, nM
CCOc1cc2cc(CO)c(CO)c(-c3ccn(CCOC)c(=O)c3)c2cc1OCC	57
COc1cc2cc(CO)c(CO)c(Cc3cc(OC)c(OC)c(OC)c3)c2cc1OC	5000
COc1cc2cc(CO)c(CO)c(-c3cc(OC)c(OC)c(C(=O)N(C)C)c3)c2cc1OC	5
COc1cc2cc(CO)c(CO)c(-c3cc(NC(C)=O)c(OC)c(OC)c3)c2cc1OC	70

(a) COc1ccc2c(-c3cc(OC)c(OC)c(OC)c3)c(CO)c(CO)cc2c1
(b) COc1cc2cc3c(c(-c4cc(OC)c(OC)c(OC)c4)c2cc1OC)C(=O)OC3
Q: Given the listed records, identify the one among a and b with higher IC50. Give the label of your selection.
Result: a
(a: 40000 nM, b: 500 nM)

(a) CCCCn1ccc(-c2c(CO)c(CO)cc3cc(OCC)c(OCC)cc23)cc1=O
(b) COCCn1ccc(-c2c(CO)c(CO)cc3cc(OC)c(OC)cc23)cc1=O
(c) COc1cc2cc(CO)c(CO)c(-c3cc(OC)c(OC)c(S(C)(=O)=O)c3)c2cc1OC
(d) COc1cc2cc(CO)c(CO)cc2cc1OC
(e) COc1ccc(-c2c(CO)c(CO)cc3cc(OC)c(OC)cc23)cc1OC
Q: Your job: order these 5 records by IC50, ascending. // respond by listing labels in the order requested
Result: a, c, e, b, d

(a) CCOc1cc2cc(CO)c(CO)c(-c3ccn(CCOC)c(=O)c3)c2cc1OC
(b) COc1cc2cc(CO)c(CO)c(C3=CC=NC(=O)C3)c2cc1OC
Q: Given the listed records, identify the one among a and b with higher IC50. Give the label of your selection.
Result: a
(a: 450 nM, b: 200 nM)

(A) COc1cc2cc(CO)c(CO)c(-c3ccn(C)c(=O)c3)c2cc1OC
(B) CCOc1cc2cc(CO)c(CO)c(-c3cc(N)c(OC)c(OC)c3)c2cc1OCC.Cl
(C) COc1cc2cc(CO)c(CO)c(-c3cc(OC)c(OC)c(OC)c3)c2cc1OC
Q: Rank by IC50 (largest to smallest). // respond by listing labels in the order requested
Result: A, C, B

---

# Reduction per record follows
System: Cavia porcellus
Experiment: Reduced histamine-induced bronchoconstriction in anesthetized guinea pig at 0.3 mg/kg intravenous dose
Assay type: functional
Quick reminder: number only, in %, skip the unit.

Record Smiles	Unit Name	Measurement
CCCCn1ccc(-c2c(CO)c(CO)cc3cc(OCC)c(OCC)cc23)cc1=O	%	47
COc1cc2cc(CO)c(CO)c(-c3cc(OC)c(OC)c(C(=O)N(C)C)c3)c2cc1OC	%	69
COc1cc2cc(CO)c(CO)c(-c3cc(OC)c(OC)c(S(C)(=O)=O)c3)c2cc1OC	%	71
CCOc1cc2cc(CO)c(CO)c(-c3ccn(CCOC)c(=O)c3)c2cc1OC	%	30

Attention now shifts to the item below.
Q: Answer with the recorded Reduction for the compound listed here: CCOc1cc2cc(CO)c(CO)c(-c3ccn(CCOC)c(=O)c3)c2cc1OCC
Result: 92
